These data points were gathered from paper PMC11653257.

- Protocol Details: pKa of the ligands by UV–vis titration
- Format: physicochemical
- Recorded Conditions: 0.20 M KNO3, UV–vis; I = 0.20 M KNO3; […]; 10 equiv. EDTA; read-out: pKa (NqH+)
Reported Endpoint: pKa
Form: value (number only, do not type unit).

INPUT: Fill in the blank: the reported pKa of Oc1c(CN2CCCCC2)cc(Cl)c2cccnc12 is ____.
OUTPUT: 2.09

---

- System: Colo205
- Protocol Details: Cytotoxicity, Colo205
- Type: cell-based
- Recorded Conditions: Homo sapiens, COLO 205; 72 h incubation; this work
Reported Endpoint: pIC50
On this scale, pIC50 is minus log10 of a concentration expressed in M (mol/L).

INPUT: Fill in the blank: the reported pIC50 of COc1cccc2c1C(=O)c1c(O)c3c(c(O)c1C2=O)C[C@@](O)(C(=O)CO)C[C@@H]3O[C@H]1C[C@H](N)[C@H](O)[C@H](C)O1 [doxorubicin, reference compound] is ____.
OUTPUT: 7.30
